These entries and their values trace back to patent US7745489B2.

# Highest Conc. (mole fraction) w/ % inhibition per record follows
- Tested On: iPLA2 (Homo sapiens, UniProt O60733)
- Sequence (O60733 whole entry): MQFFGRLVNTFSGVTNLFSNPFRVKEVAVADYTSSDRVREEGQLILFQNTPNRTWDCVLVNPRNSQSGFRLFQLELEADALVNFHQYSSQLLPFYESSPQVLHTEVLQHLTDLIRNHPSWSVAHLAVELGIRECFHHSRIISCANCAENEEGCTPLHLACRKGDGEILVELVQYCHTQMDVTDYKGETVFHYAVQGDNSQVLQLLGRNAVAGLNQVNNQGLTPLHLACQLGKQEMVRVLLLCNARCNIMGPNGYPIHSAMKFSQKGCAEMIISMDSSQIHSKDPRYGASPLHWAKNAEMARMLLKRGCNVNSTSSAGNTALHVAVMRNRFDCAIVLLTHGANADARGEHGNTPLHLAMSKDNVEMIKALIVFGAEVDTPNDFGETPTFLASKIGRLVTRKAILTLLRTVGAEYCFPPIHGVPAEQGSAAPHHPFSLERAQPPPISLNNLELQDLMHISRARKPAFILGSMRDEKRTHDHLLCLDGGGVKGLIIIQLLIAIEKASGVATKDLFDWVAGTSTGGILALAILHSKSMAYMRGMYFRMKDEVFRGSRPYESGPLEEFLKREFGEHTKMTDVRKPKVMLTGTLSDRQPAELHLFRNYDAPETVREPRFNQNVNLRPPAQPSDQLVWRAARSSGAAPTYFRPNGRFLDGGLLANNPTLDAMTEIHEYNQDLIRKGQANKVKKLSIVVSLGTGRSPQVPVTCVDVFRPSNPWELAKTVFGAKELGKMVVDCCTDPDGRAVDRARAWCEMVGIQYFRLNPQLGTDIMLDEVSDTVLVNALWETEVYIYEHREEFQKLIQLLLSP
- Method Description: iPLA2 activity mixed micelle assay, inhibition by 2-oxoamides
- Assay type: biochemical
- Assay Context: Table 3, at 0.020 mole fraction

- Molecule: "CCC/C=C\\CCNC(=O)C(=O)CC [OA23]"
  Reading: "0.020: 43% ± 4%"

Value wanted: Highest Conc. (mole fraction) w/ % inhibition (iPLA2 (Homo sapiens, UniProt O60733)) of entry CCNC(=O)C(=O)CC [OA22]
0.020: 31% ± 6%

# returns recorded Highest Conc. (mole fraction) w/ % inhibition (system: iPLA2 (Homo sapiens, UniProt O60733)) for CCC(=O)C(N)=O [OA21]
0.020: 38% ± 6%

Please state recorded Highest Conc. (mole fraction) w/ % inhibition (tested on iPLA2 (Homo sapiens, UniProt O60733)) of CCC/C=C\CCNC(=O)C(=O)CC [OA24]
0.020: 60% ± 6%
